# Tested on: Plasmodium falciparum
# Method Summary: Confirmatory screen in NF54 pLDH assay, in single point, at 2uM, 72h
# Type: functional, Erythrocyte
# Condition: timepoint 72 hour
Screen size: about 4,800 compounds; about 410 (8.5%) showed an effect of 50% or more. This is one part of a sample in which strong results are shown more often than they occur.
Readout Type: % Inhibition (%)

> print(dat)
                                    compound  measurement
 1      Cc1noc(C)c1CC(=O)Nc1cccc(-c2nnco2)c1            9
 2           Brc1ccc(Oc2ncc(CN3CCOCC3)s2)cc1            7
 3  Cc1nnc(-c2ccc3ccn(CC(=O)Nc4ccc(F)c(Cl)c4)c3c2)o1           96
 4               CCNC(=O)C(=O)NCc1ccc(OC)cc1          -20
 5  Cn1cc(-c2ccc(Cl)cc2)c2ncn(CC(=O)Nc3cccc(Cl)c3)c(=O)c21           -1
 6  COc1cccc(NC(=O)N2CCN(c3nc4ccccc4n(Cc4ccccc4)c3=O)CC2)c1            0
 7  COc1ccc(CC2C(O)C(Cc3ccc(OC)cc3)C3CCC2N3C)cc1 (stereo unspecified)            6
 8  Cc1ccccc1S(=O)(=O)NCc1nnc(C(=O)Nc2ccc(F)cc2F)s1           11
 9  Cc1ccc(C)c(S(=O)(=O)NCCNc2ccc(Nc3ccncc3)nn2)c1           29
10  CCNc1nc(C)cc(Nc2ccc(NC(=O)c3cc(C)ccc3C)cc2)n1           99
11  Cc1nc2cc3c(cc2n1CC(=O)Nc1ccc(Cl)cc1)OCCCO3           15

###

Below, each entry is listed alongside its reported % Inhibition.
# System: Plasmodium falciparum
# Method Summary: Confirmatory screen in NF54 pLDH assay, in single point, at 2uM, 72h
# Type: functional, Erythrocyte
# Condition: timepoint 72 hour
Screen size: about 4,800 compounds; about 410 (8.5%) showed an effect of 50% or more. What follows is part of a selection rich in strong results, with near analogues and random picks from the rest.
Readout Type: % Inhibition (%)

> print(dat)
                                    molecule  measurement
 1  Cc1ccc2nc(-c3cccc(NC(=O)c4ccc5c(c4)OCO5)c3)oc2c1           -7
 2  COc1ccc2cc3n(c2c1)C[C@](C(=O)NC1CCCCCC1)(c1ccccc1)N(Cc1ccccc1Cl)C3=O           13
 3  Cc1nnc(Cn2nnc(C(=O)NCC3(CC(C)C)CCC3)c2C)o1          -24
 4  c1ccc(-c2nc(C[n+]3ccc4c(c3)CCCC4)cs2)cc1           56
 5  Cc1nc([C@@H](NC(=O)c2cc(Cl)cn2C)c2cnn(C)c2)no1          -10
 6  COc1ccc2c(c1)[n+](CC(=O)c1ccc(-c3ccc(Br)cc3)cc1)c(CO)n2C           54
 7       Cc1ncccc1C(=O)NCCc1csc(-c2ccccc2)n1          -19
 8  CC(C)(C)n1ncc2c1NC(=O)C[C@@H]2c1c(F)cccc1Cl          -19
 9  CC(Oc1ccc2c(c1)C(c1ccccc1)N(Cc1ccccc1F)CC2)C(=O)NC1CC1 (stereo not given)           50
10  Cc1ccc(C(=O)C[n+]2cc(-c3ccc(Br)cc3)n(C)c2N)cc1          -16

Cited source for all entries: ChEMBL document CHEMBL4888484
